Tested on: lipid peroxide production in liver homogenate
Assay: Inhibition of lipid peroxide formation in rat liver homogenate (TBA method)
Type: biochemical, Sprague-Dawley rats
Conditions: positive controls, FeSO4/ascorbic acid, 37° C., 30 minutes, mean ± standard error, read-out: Lipid peroxide production inhibitory activity IC50
Protocol: Lipid peroxide is a substance produced by peroxidation of lipids through various oxidation reactions. Reactive oxygen species, free radicals and the like oxidize phospholipids of cell membranes containing great amounts of unsaturated fatty acids, producing lipid peroxides in the cell membranes. […] The animals used in the experiment were male Sprague-Dawley rats, and only water was supplied for 24 hours before the experiment.
pIC50: −log10 of the molar value.
recorded.endpoint: pIC50

I'd like to know its pIC50. The molecule in question is Cc1c(C)c2c(c(C)c1O)CCC(C)(C(=O)O)O2 (stereo not shown)
< 4.00
